tested on: Nakaseomyces glabratus; assay: Antifungal activity against fluconazole-resistant Candida glabrata isolate 6258 assessed as growth inhibition after 24 to 48 hrs by CLSI microbroth dilution method; format: functional
Recorded measurements of MIC, one per entry

Some molecules with recorded MIC:
So what does the record say about MIC for `COc1ccc(O)c(-c2csc(N/N=C/c3cnc[nH]3)n2)c1` ?
> 16 µg/mL

Sample `C[C@@H](c1ncncc1F)[C@](O)(Cn1cncn1)c1ccc(F)cc1F` — what was its MIC?
2 µg/mL

Value lookup for MIC; key = `OC(Cn1cncn1)(Cn1cncn1)c1ccc(F)cc1F`
16 µg/mL

Continuing:
I'd like to know its MIC. The molecule in question is `C/C(=N\Nc1nc([C@@H](N)Cc2ccccc2)cs1)c1ccc2c(c1)CCC2`
> 16 µg/mL

For `COc1ccc(O)c(-c2csc(N/N=C/c3ccc4ccccc4c3)n2)c1` , what is its reported MIC?
> 16 µg/mL

For `COc1ccc(O)c(-c2csc(N/N=C/c3ccco3)n2)c1` , what is its reported MIC?
> 16 µg/mL

Item under review: COc1ccc(O)c(-c2csc(N/N=C(/C)C3CCc4ccccc43)n2)c1 (stereo not given) . Reported MIC?
> 16 µg/mL

Which MIC value is on record for `COc1ccc(O)c(-c2csc(N/N=C/c3cc4ccccc4o3)n2)c1` ?
> 16 µg/mL

GET /values?readout=MIC&item= `COc1ccc(O)c(-c2csc(N/N=C/c3ccc4c(c3)OCO4)n2)c1`
> 16 µg/mL

Item under review: `COc1ccc(O)c(-c2csc(N/N=C/c3cc[nH]c3)n2)c1` . Reported MIC?
> 16 µg/mL
